# credit: patent US20230372448A1

Target: T1, human GIP receptor (human, UniProt P48546 22-466)
T1 sequence (looked up): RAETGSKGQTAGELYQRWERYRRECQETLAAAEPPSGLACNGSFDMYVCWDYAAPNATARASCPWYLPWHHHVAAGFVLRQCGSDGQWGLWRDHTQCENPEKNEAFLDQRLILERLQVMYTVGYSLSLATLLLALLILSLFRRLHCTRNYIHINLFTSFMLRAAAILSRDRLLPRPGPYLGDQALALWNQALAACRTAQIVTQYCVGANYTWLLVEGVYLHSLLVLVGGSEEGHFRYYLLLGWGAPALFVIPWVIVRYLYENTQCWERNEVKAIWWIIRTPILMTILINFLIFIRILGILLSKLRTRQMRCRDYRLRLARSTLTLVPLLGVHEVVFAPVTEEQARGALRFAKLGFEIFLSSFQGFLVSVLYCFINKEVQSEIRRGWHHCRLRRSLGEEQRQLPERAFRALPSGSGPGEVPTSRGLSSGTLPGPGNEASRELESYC
Assay: cell-based or functional assay
Positions of bridges follow the written chain, without caps; N, C: chain ends. Non-standard residues stand in square brackets, D forms with d. No end group written: not given here. *: point of attachment. Acetyl(2-(4-imidazolyl)) = O=C(Cc1c[nH]cn1)*; Aib = CC(C)(N)C(=O)O
Lab note: compare In vitro activity (%) compared with native peptide: vs GIP with 4%, writing true (1) if less and false (0) if equal or more.

BINDER	GROUP_LABEL
Y[Aib]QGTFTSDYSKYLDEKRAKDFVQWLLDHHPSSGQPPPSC (bridge 16-20; not fully specified) [triple agonist of SEQ ID NO: 76]	false (0)
H[Aib]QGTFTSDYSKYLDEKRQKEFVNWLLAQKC (bridge 16-20; not fully specified) [triple agonist of SEQ ID NO: 34]	true (1)
H[Aib]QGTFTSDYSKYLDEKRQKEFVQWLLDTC (bridge 16-20; not fully specified) [triple agonist of SEQ ID NO: 52]	true (1)
Y[Aib]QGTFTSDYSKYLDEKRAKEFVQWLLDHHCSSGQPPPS (bridge 16-20; not fully specified) [triple agonist of SEQ ID NO: 43]	true (1)
Y[Aib]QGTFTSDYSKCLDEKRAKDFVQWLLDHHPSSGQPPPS (bridge 16-20; not fully specified) [triple agonist of SEQ ID NO: 70]	false (0)

Input: Please let me know if H[Aib]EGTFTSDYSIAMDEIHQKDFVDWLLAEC (bridge 16-20; not fully specified) [triple agonist of SEQ ID NO: 54] shows In vitro activity (%) compared with native peptide: vs GIP below 4%.
Output: true (1)

Input: For {Acetyl(2-(4-imidazolyl))}-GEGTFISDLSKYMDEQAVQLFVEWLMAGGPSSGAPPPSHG (not fully specified; also: ring from underlined residues, positions not shown) [triple agonist of SEQ ID NO: 12] , is the recorded In vitro activity (%) compared with native peptide: vs GIP below the cut-off of 4%?
Output: true (1)
